Test system: HepG2
Method description: Antiproliferative activity against human HepG2 cells assessed as inhibition of cell proliferation incubated for 48 hrs by MTT assay
Format: functional, cell-based
Condition context: HepG2, 48 h
Endpoint label: IC50 (µM)
Could you give me the number in µM? Just the number is fine.

Illustrative cases are given below, each with its answer.
Compound: O=C(Nc1cnn(-c2ccccc2)c1)c1ccc(NS(=O)(=O)c2ccccc2)cc1
Target or system: HepG2
Reported result: 21.5
--
Compound: COc1cccc(-n2cc(NC(=O)c3cccc(NS(=O)(=O)c4ccc(Cl)cc4)c3)cn2)c1
Target or system: HepG2
Reported result: 19.6
--
Compound: O=C(Nc1cnn(-c2ccccc2)c1)c1cccc(NS(=O)(=O)c2ccc(Cl)cc2)c1
Target or system: HepG2
Reported result: 8.54
--
Compound: O=C(Nc1cnn(-c2ccccc2)c1)c1cccc(NS(=O)(=O)c2ccccc2)c1
Target or system: HepG2
Reported result: 10.1

Please turn your attention to the following entry.
// IC50 lookup, compound = COc1ccc(-n2cc(NC(=O)c3ccc(NS(=O)(=O)c4ccc(Cl)cc4)cc3)cn2)cc1 , result: 19.1

* * *

Tested on: HepG2
Method description: Antiproliferative activity against human HepG2 cells assessed as inhibition of cell proliferation incubated for 48 hrs by MTT assay
Assay type: functional, cell-based
Condition context: HepG2, 48 h
pIC50: −log10 of the molar value.
Please note: label 1 applies when pIC50 is 5 or greater, and label 0 applies otherwise.

Compound: COc1ccc(-n2cc(NC(=O)c3cccc(NS(=O)(=O)c4ccccc4)c3)cn2)cc1
Assigned category: label 0

Check this compound for pIC50 at or above 5: O=C(Nc1cnn(-c2ccccc2)c1)c1ccc(NS(=O)(=O)c2ccc(Cl)cc2)cc1
label 0

# bool: pIC50 of Cn1cc(NC(=O)c2ccc(NS(=O)(=O)c3ccccc3)cc2)cn1 >= 5
label 0

Textbook exercise: given the entry COc1cccc(-n2cc(NC(=O)c3ccc(NS(=O)(=O)c4ccccc4)cc3)cn2)c1 , state whether its pIC50 is greater than or equal to 5.
label 0

* * *

Tested on: HeLa
Method description: Antiproliferative activity against human HeLa cells assessed as inhibition of cell proliferation incubated for 48 hrs by MTT assay
Assay type: functional, cell-based
Quick reference: pIC50 of the listed items.
In textbook form, pIC50 equals minus log to base ten of the concentration in mol/L.

Worked examples, 6 molecules total:
Compound: Cn1cc(NC(=O)c2cccc(NS(=O)(=O)c3ccccc3)c2)cn1
pIC50: 4.11
//
Compound: COc1cccc(-n2cc(NC(=O)c3cccc(NS(=O)(=O)c4ccccc4)c3)cn2)c1
pIC50: 4.58
//
Compound: Cn1cc(NC(=O)c2ccc(NS(=O)(=O)c3ccccc3)cc2)cn1
pIC50: 4.03
//
Compound: COc1cccc(-n2cc(NC(=O)c3cccc(NS(=O)(=O)c4ccc(Cl)cc4)c3)cn2)c1
pIC50: 4.60
//
Compound: COc1ccc(-n2cc(NC(=O)c3ccc(NS(=O)(=O)c4ccc(Cl)cc4)cc3)cn2)cc1
pIC50: 4.60
//
Compound: O=C(Nc1cnn(-c2ccccc2)c1)c1cccc(NS(=O)(=O)c2ccc(Cl)cc2)c1
pIC50: 5.27

Per the records, this molecule ( Cc1ccc(-n2cc(NC(=O)c3cccc(NS(=O)(=O)c4ccccc4)c3)cn2)cc1 ) has pIC50 equal to 5.51

According to the records, this molecule O=C(Nc1cnn(-c2ccccc2)c1)c1cccc(NS(=O)(=O)c2ccccc2)c1 displays pIC50 of 4.81

pIC50 in this record for Cc1ccc(-n2cc(NC(=O)c3cccc(NS(=O)(=O)c4ccc(Cl)cc4)c3)cn2)cc1 : 5.34

# molecule COc1ccc(-n2cc(NC(=O)c3ccc(NS(=O)(=O)c4ccccc4)cc3)cn2)cc1 ; its pIC50 = 4.33
